experiment: MTT cytotoxicity assay on HUVEC (normal cell line); assay type: cell-based; details: human, HUVEC (umbilical vein endothelial cells), mean ± SD, read-out: Cytotoxic activity IC50, HUVEC
Measured IC50 at 24 h accompanies every entry in the list below.

[
  {
    "MOLECULE": "COc1cccc2c1C(=O)c1c(O)c3c(c(O)c1C2=O)C[C@@](O)(C(=O)CO)C[C@@H]3O[C@H]1C[C@H](N)[C@H](O)[C@H](C)O1 [Doxorubicin, doxorubicin, reference compound]",
    "UNITS_SYMBOL": "µg/mL",
    "IC50 at 24 h": 0.045
  },
  {
    "MOLECULE": "C[C@@H]1O[C@@H](OC[C@H]2O[C@@H](Oc3c(-c4ccc(O)c(O)c4)oc4cc(O)cc(O)c4c3=O)[C@H](O)[C@@H](O)[C@@H]2O)[C@H](O)[C@H](O)[C@H]1O [Compound 1, quercetin 3-O-rutinoside]",
    "UNITS_SYMBOL": "µg/mL",
    "IC50 at 24 h": 9.35
  },
  {
    "MOLECULE": "COc1cc(-c2oc3cc(O)cc(O)c3c(=O)c2O[C@@H]2O[C@H](CO)[C@@H](O)[C@H](O)[C@H]2O)ccc1O [Compound 2, isorhamnetin 3-O-glucoside]",
    "UNITS_SYMBOL": "µg/mL",
    "IC50 at 24 h": 9.96
  },
  {
    "MOLECULE": "O=c1c(O)c(-c2ccc(O)c(O)c2)oc2cc(O)cc(O)c12 [Compound 3, quercetin]",
    "UNITS_SYMBOL": "µg/mL",
    "IC50 at 24 h": 7.23
  }
]
